Molecular target: Androgen Receptor (Homo sapiens)
Construct: endogenous in cells; host or cells: VCaP cells
Experiment: Androgen Receptor ELISA assay (PathScan AR ELISA) in VCaP cells: AR degradation, Dmax and DC50
Format: cell-based
Conditions: VCaP, read-out: VCaP Dmax (%)
Method: 1. Androgen Receptor ELISA Assay. The protocols used with VCaP cells are described below. The androgen receptor ELISA assay was performed using PathScan AR ELISA (Cell Signaling Catalog #12850) according to the following assay steps: […]
# Dmax per entry

compound: Cc1ncsc1-c1ccc(CNC(=O)[C@@H]2C[C@@H](O)CN2C(=O)[C@H](C(C)C)n2cc(OC3CCN(c4ccc(-c5ccc(N6C(=S)N(c7ccc(C#N)c(C(F)(F)F)c7)C(=O)C6(C)C)cc5)cn4)CC3)cn2)cc1 [Example 598]
system name: Androgen Receptor (Homo sapiens)
recorded result: 26 to 50%

Okay, next one:
### Prompt Give Dmax (Androgen Receptor (Homo sapiens)) of the following compound: Cc1ncsc1-c1ccc(CNC(=O)[C@@H]2C[C@@H](O)CN2C(=O)[C@@H](NC(=O)COCCOc2ccc(-c3ccc(N4C(=S)N(c5ccc(C#N)c(C(F)(F)F)c5)C(=O)C4(C)C)cc3)cc2)C(C)(C)C)cc1 [Example 78]
### Response 51 to 70%

* * *

molecular target: Androgen Receptor (Homo sapiens, UniProt P10275); construct: endogenous in cells; host or cells: VCaP cells; experiment: Androgen Receptor ELISA assay (PathScan AR ELISA) in VCaP cells: AR degradation, Dmax and DC50; assay type: cell-based; conditions: VCaP, VCaP cells; Table 36; read-out: VCaP Dmax (%)
Sequence (P10275 whole entry): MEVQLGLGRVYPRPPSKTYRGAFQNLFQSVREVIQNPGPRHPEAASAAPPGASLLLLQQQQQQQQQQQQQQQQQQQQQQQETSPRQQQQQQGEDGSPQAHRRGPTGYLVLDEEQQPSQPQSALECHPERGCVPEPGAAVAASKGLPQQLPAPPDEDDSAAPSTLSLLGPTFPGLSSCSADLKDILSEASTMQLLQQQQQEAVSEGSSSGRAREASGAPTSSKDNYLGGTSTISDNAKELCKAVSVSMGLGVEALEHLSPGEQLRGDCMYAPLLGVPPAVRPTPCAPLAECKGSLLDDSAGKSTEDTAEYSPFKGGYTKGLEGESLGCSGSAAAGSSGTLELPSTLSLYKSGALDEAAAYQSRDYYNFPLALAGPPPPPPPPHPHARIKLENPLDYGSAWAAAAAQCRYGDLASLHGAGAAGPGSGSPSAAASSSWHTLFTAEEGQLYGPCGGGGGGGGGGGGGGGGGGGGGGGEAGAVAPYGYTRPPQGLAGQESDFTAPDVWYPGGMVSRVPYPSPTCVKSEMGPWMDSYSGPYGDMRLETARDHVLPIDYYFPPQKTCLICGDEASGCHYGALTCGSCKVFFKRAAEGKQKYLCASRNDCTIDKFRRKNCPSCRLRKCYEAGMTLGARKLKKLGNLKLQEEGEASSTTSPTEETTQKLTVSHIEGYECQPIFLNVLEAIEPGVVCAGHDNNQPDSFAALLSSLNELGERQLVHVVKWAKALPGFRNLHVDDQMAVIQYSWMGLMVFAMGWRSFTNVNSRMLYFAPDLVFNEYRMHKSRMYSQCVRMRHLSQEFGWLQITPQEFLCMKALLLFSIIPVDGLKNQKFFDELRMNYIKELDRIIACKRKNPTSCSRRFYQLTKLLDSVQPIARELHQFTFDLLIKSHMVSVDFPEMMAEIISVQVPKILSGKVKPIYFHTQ
measurement type: Dmax

Field: example entries. Status: answers known.
molecule: CC(C)(C)[C@H](NC(=O)COCCN1CCN(c2ccc(C(=O)N[C@H]3C(C)(C)[C@H](Oc4ccc(C#N)c(Cl)c4)C3(C)C)cn2)CC1)C(=O)N1C[C@H](O)C[C@H]1C(=O)NCc1ccc(C2CCOCC2)cc1
Dmax: 26 to 50%
--
molecule: CCO/N=C(\CCCCC(=O)N[C@H](C(=O)N1C[C@H](O)C[C@H]1C(=O)N[C@@H](C)c1ccc(-c2scnc2C)cc1)C(C)(C)C)CCCc1ccc(C(=O)N[C@H]2C(C)(C)[C@H](Oc3ccc(C#N)c(Cl)c3)C2(C)C)nc1
Dmax: 51 to 70%
--
molecule: Cc1ncsc1-c1ccc([C@H](C)NC(=O)[C@@H]2C[C@@H](O)CN2C(=O)[C@@H](NC(=O)CN2CCN(CCCOCc3cc(C(=O)N[C@@H](C)Cn4ccc(-c5ccc(C#N)c(C(F)(F)F)c5)n4)n[nH]3)CC2)C(C)(C)C)cc1
Dmax: 26 to 50%
--
molecule: Cc1ncsc1-c1ccc([C@H](C)NC(=O)[C@@H]2C[C@@H](O)CN2C(=O)C(NC(=O)CO[C@H]2CCCC[C@@H]2N2CCN(CCOc3ccc(C(=O)N[C@H]4C(C)(C)[C@H](Oc5ccc(C#N)c(Cl)c5)C4(C)C)cc3)CC2)C(C)(C)C)cc1 (some centres unmarked)
Dmax: < 25%
--
molecule: Cc1ncsc1-c1ccc([C@H](C)NC(=O)[C@@H]2C[C@@H](O)CN2C(=O)[C@@H](NC(=O)Cc2ccnc(N3CCN(c4ccc(C(=O)N[C@H]5C(C)(C)[C@H](Oc6ccc(C#N)c(Cl)c6)C5(C)C)cn4)CC3)c2)C(C)(C)C)cc1
Dmax: > 71%
--
molecule: Cc1ncsc1-c1ccc([C@H](C)NC(=O)[C@@H]2C[C@H](O)CN2C(=O)[C@@H](NC(=O)COCCN2CCN(c3ccc(C(=O)N[C@H]4C(C)(C)[C@H](Oc5ccc(C#N)c(Cl)c5)C4(C)C)cn3)CC2)C(C)(C)C)cc1 (stereo in doubt)
Dmax: > 71%
--
molecule: Cc1ncsc1-c1ccc([C@H](C)NC(=O)[C@@H]2C[C@@H](O)CN2C(=O)[C@@H](C(C)C)n2cc(-c3ccnc(N4CC[C@@H](Nc5ccc(C(=O)N[C@H]6C(C)(C)[C@H](Oc7ccc(C#N)c(Cl)c7)C6(C)C)cc5)C4)c3)cn2)cc1
Dmax: < 25%

We next turn to a different molecule, shown below.
### Prompt I have this molecule here, "Cc1ncsc1-c1ccc([C@H](CO)NC(=O)[C@@H]2C[C@@H](O)CN2C(=O)[C@@H](NC(=O)CN2CCN(CCCCc3ccc(C(=O)N[C@H]4C(C)(C)[C@H](Oc5ccc(C#N)c(Cl)c5)C4(C)C)cc3)CC2)C(C)(C)C)cc1" , and I need its recorded Dmax.
### Response > 71%
